# Lookup of reported log10(EC50) keyed by entry
Target: purified human topoisomerase I (Homo sapiens)
Sequence (P11387 whole entry): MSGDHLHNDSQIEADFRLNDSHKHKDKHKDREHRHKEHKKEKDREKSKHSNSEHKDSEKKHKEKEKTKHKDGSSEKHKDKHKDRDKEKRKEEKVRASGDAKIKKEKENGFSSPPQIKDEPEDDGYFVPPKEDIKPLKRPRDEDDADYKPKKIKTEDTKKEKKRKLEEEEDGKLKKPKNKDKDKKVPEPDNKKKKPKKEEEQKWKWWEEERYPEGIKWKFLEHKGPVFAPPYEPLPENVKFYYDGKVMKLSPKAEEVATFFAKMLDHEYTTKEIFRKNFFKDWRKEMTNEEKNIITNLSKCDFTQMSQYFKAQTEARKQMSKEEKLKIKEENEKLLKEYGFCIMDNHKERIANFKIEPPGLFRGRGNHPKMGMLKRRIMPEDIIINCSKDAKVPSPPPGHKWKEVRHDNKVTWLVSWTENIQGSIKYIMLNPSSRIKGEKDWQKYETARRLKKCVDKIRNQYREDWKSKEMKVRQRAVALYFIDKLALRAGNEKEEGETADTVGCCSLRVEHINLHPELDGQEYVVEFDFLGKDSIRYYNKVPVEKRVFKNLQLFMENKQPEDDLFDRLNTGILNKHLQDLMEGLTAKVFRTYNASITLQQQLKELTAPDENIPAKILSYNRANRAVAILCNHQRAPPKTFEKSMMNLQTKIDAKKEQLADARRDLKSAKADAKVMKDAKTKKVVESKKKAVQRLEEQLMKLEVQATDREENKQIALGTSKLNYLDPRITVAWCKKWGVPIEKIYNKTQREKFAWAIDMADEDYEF
Assay: Topoisomerase I-mediated single strand DNA break induction (in vitro)
Conditions: median effect concentration for inducing single-strand breaks in the DNA substrate; read-out: Topo I EC50
Description: Topoisomerase I activity was measured as described below. The procedure for assaying compound-induced, topoisomerase I-mediated single strand breaks in DNA was essentially that described by Hsiang, et al., (J. Biol. Chem. 1985, 260, 14873-14878). […] Negatives of the photographs of the irradiated gels were scanned with a densitometer and areas under the peaks were calculated in order to obtain percent single strand DNA break formation for each sample. […]
In plain terms, each number is the log10 of measured EC50 in µM.

NC[C@@H]1C[C@H](O)[C@@H](O)[C@H](n2c3ccc(F)cc3c3c4c(c5c6cc(F)ccc6[nH]c5c32)C(=O)NC4=O)O1    -1.70

Prompt line: What log10(EC50) value was documented for this compound, O=C1NC(=O)c2c1c1c3cc(F)c(F)cc3sc1c1c2c2cc(F)c(F)cc2n1[C@@H]1O[C@H](CO)C(F)(F)[C@H](O)[C@H]1O ?
Response line: -2.00

Prompt line: What log10(EC50) value was documented for this compound, O=C1NC(=O)c2c1c1c3cc(F)ccc3[nH]c1c1c2c2cc(F)ccc2n1[C@@H]1O[C@H](CF)[C@H](O)[C@H](O)[C@H]1O ?
Response line: -0.66

Prompt line: What log10(EC50) value was documented for this compound, O=C1NC(=O)c2c1c1c3cc(F)c(F)cc3sc1c1c2c2cc(F)c(F)cc2n1[C@@H]1O[C@H](CF)C[C@H](O)[C@H]1O ?
Response line: -0.64

Prompt line: What log10(EC50) value was documented for this compound, O=C1NC(=O)c2c1c1c3cc(F)ccc3[nH]c1c1c2c2cc(F)ccc2n1[C@@H]1O[C@H](CO)[C@@H](F)[C@H](O)[C@H]1O ?
Response line: -1.70

Prompt line: What log10(EC50) value was documented for this compound, O=C1NC(=O)c2c1c1c3cc(F)ccc3[nH]c1c1c2c2cc(F)ccc2n1[C@@H]1O[C@H](CO)C[C@@H](O)[C@H]1O ?
Response line: -1.70

Prompt line: What log10(EC50) value was documented for this compound, O=C1NC(=O)c2c1c1c3cc(F)ccc3[nH]c1c1c2c2cc(F)ccc2n1[C@H]1O[C@H](CF)[C@@H](O)[C@H](O)[C@H]1O ?
Response line: -1.00

Prompt line: What log10(EC50) value was documented for this compound, O=C1NC(=O)c2c1c1c3cc(F)c(F)cc3[nH]c1c1c2c2cc(F)c(F)cc2n1[C@@H]1O[C@H](CO)C(F)(F)[C@H](O)[C@H]1O ?
Response line: -1.52

Prompt line: What log10(EC50) value was documented for this compound, O=C1NC(=O)c2c1c1c3cc(F)ccc3sc1c1c2c2cc(F)ccc2n1[C@@H]1O[C@H](CSc2nccc(O)n2)[C@@H](O)[C@H](O)[C@H]1O ?
Response line: -0.62

Prompt line: What log10(EC50) value was documented for this compound, O=C1NC(=O)c2c1c1c3cc(F)ccc3[nH]c1c1c2c2cc(F)ccc2n1[C@@H]1O[C@H](CO)C[C@H](O)[C@H]1O ?
Response line: -1.10

Prompt line: What log10(EC50) value was documented for this compound, O=C1NC(=O)c2c1c1c3cc(F)ccc3sc1c1c2c2cc(F)ccc2n1[C@@H]1O[C@H](CN2CCOCC2)[C@@H](O)[C@H](O)[C@H]1O ?
Response line: -0.80
